Measured values drawn from ChEMBL document CHEMBL1141216 for this set.

Molecular target: UniProt O70536
Sequence (whole entry): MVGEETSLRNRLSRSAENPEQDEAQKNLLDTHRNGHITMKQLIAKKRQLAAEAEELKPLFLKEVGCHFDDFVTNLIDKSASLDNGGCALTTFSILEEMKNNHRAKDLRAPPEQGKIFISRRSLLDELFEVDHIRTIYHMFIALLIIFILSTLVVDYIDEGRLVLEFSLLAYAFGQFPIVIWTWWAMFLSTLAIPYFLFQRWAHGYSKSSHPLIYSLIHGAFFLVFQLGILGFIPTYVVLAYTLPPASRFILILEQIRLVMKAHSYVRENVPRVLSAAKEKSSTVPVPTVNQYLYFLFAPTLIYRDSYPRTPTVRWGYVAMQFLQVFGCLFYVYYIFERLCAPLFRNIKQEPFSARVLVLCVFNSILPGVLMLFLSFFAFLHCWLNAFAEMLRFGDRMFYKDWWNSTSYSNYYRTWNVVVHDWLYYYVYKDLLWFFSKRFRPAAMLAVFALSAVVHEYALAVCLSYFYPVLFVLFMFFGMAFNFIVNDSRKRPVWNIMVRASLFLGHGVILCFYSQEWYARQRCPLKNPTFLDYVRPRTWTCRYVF
Assay: Inhibition of ACAT expressed in rat liver microsomes at 50 ug/ml
Details: Microsome
observation-type: inhibition (%)

| compound | inhibition / % |
| --- | --- |
| CCCCCCCN(CCCCC[S+]([O-])c1cc(-c2ccccc2)c(-c2ccccc2)nn1)C(=O)Nc1ccc(F)cc1F (centres undefined) | 65 |

P = CCCCCCCN(CCCCC[S+]([O-])c1ccc(-c2ccccc2)nn1)C(=O)Nc1ccc(F)cc1F (centres undefined)
Q = CCCCCCCN(CCCCCNc1cc(-c2ccccc2)c(-c2ccccc2)nn1)C(=O)Nc1ccc(F)cc1F
### Prompt Short answer wanted: higher inhibition, P or Q ? Which one? Tell me its label.
### Response Q
(Q: 87%, P: 55%)

----------
Target sequence: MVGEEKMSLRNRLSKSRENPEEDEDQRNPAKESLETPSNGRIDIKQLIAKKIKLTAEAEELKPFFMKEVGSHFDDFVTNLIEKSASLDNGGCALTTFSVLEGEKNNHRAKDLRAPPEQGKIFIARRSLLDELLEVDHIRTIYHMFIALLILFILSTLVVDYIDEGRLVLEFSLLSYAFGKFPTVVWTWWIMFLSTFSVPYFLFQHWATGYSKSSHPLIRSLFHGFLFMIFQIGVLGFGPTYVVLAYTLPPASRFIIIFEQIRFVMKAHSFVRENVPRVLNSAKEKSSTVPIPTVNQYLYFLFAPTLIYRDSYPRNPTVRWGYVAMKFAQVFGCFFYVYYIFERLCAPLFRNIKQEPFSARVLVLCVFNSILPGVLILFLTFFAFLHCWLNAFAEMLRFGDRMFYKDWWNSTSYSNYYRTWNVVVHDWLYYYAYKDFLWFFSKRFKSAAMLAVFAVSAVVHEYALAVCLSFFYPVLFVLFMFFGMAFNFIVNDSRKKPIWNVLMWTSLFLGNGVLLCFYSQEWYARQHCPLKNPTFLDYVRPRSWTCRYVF
observation-type: pIC50
// field semantics: pIC50 = negative decimal log of concentration (mol/L)

### Prompt Recorded pIC50 for CCCCCCCN(CCCCCNc1ccc(-c2ccccc2)nn1)C(=O)Nc1ccc(F)cc1F , please?
### Response 5.27

----------
Target: Sterol O-acyltransferase 1 (Rattus norvegicus)
Sequence (whole entry): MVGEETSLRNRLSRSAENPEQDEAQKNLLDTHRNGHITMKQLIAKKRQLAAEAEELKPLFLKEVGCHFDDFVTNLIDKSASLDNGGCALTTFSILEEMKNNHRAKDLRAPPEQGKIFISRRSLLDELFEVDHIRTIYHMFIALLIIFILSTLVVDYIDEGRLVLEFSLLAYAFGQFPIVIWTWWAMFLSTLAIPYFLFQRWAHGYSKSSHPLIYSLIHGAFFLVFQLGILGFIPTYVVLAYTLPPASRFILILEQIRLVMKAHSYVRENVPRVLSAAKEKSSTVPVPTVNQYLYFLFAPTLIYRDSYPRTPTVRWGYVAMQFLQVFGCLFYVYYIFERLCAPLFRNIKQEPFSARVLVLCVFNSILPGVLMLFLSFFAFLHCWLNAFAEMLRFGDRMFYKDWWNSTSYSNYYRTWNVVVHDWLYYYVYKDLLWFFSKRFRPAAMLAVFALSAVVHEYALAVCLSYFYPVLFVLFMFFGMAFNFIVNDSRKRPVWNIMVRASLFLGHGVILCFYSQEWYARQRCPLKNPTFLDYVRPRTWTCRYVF
Test: Inhibition of ACAT expressed in rat liver microsomes at 50 ug/ml
Conditions: Microsome
observation-type: inhibition (%)

Past entries and their recorded results:
| compound | inhibition, % |
| --- | --- |
| CCCCCCCN(CCCCCSc1cc(-c2ccccc2)c(-c2ccccc2)nn1)C(=O)Nc1ccc(F)cc1F | 75 |
| CCCCCCCN(CCCCCS(=O)(=O)c1ccc(-c2ccccc2)nn1)C(=O)Nc1ccc(F)cc1F | 43 |
| CCCCCCCN(CCCCCNc1cc(-c2ccccc2)cnn1)C(=O)Nc1ccc(F)cc1F | 46 |
| CCCCCCCN(CCCCCNc1ccc(-c2ccccc2)nn1)C(=O)Nc1ccc(F)cc1F | 89 |
| CCCCCCCN(CCCCCS(=O)(=O)c1cc(-c2ccccc2)c(-c2ccccc2)nn1)C(=O)Nc1ccc(F)cc1F | 70 |
| CCCCCCCN(CCCCC[S+]([O-])c1cc(-c2ccccc2)cnn1)C(=O)Nc1ccc(F)cc1F (stereo not drawn) | 62 |

P = CCCCCCCN(CCCCCSc1ccc(-c2ccccc2)nn1)C(=O)Nc1ccc(F)cc1F
Q = CCCCCCCN(CCCCCSc1cc(-c2ccccc2)cnn1)C(=O)Nc1ccc(F)cc1F
### Prompt Looking only at measured inhibition, which entry is lower, P or Q ? Which one? Tell me its label.
### Response P

----------
Sequence of the target: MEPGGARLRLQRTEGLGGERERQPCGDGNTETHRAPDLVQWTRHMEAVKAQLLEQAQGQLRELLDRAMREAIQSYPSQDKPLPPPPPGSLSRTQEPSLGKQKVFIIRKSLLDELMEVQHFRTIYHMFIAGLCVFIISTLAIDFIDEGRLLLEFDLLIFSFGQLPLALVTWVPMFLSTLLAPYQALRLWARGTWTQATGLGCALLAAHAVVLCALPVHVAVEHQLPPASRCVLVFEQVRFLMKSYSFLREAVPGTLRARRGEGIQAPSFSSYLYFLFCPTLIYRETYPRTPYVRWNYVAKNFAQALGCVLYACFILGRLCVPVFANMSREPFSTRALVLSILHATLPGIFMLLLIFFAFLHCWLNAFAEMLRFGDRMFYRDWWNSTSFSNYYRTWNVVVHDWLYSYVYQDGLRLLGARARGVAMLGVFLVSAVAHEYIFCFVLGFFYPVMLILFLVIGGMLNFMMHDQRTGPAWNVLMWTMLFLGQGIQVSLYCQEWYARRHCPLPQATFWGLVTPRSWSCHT
pIC50: −log10 of the molar value.
observation-type: pIC50

| smiles-entry | pIC50 |
| --- | --- |
| CCCCCCCN(CCCCCNc1ccc(-c2ccccc2)nn1)C(=O)Nc1ccc(F)cc1F | 5.68 |

a = CCCCCCCN(CCCCCNc1cc(-c2ccccc2)cnn1)C(=O)Nc1ccc(F)cc1F
b = CCCCCCCN(CCCCCNc1cc(-c2ccccc2)c(-c2ccccc2)nn1)C(=O)Nc1ccc(F)cc1F
### Prompt Short answer wanted: higher pIC50, a or b ? Which one? Tell me its label.
### Response b
(b: 5.76, a: 4.00)
